- System: OVCAR-8 ovarian
- assay-text: NCI-60 one-dose screen, 48 h (100 = growth as untreated, 0 = no growth, -100 = all killed)
- assay-context: 10 µM unless noted
This is part of a sample that, as a whole, favours compounds with a hit. Of some 83,000 tested, about 20% had one in any assay.
measure: growth (%)
Kindly provide the numeric value in % only, without the unit symbol.

QUERY: Which growth is reported for this compound? O=C(CCN1CCOCC1)Nc1ccc(Cn2nnc3c2C(=O)c2nnn(Cc4ccc(NC(=O)CCN5CCOCC5)cc4)c2C3=O)cc1
RESULT: 45.6

QUERY: Which growth is reported for this compound? COc1ccc2nc3cc(Cl)ccc3c(N3CCN(c4ccnc(N5CCOCC5)n4)CC3)c2c1
RESULT: 59.2

QUERY: Which growth is reported for this compound? O=C1CCc2c(sc3[nH]c(=S)n(Cc4ccccc4)c(=O)c23)C1
RESULT: 14.3

QUERY: Which growth is reported for this compound? CC1=C(C)C(=O)OC([C@](C)(O)[C@]2(O)CC[C@@]3(O)[C@@H]4C[C@H]5O[C@]56CC=CC(=O)[C@]6(C)[C@H]4CC[C@]23COC(=O)c2ccc(C)o2)C1 (some centres undefined)
RESULT: -13.8
